system: Escherichia coli TOP10; experiment: shrunken log2 fold change of peptide-encoding DNA abundance (4.5 h post-induction vs induction); higher = less antimicrobial activity (less host growth inhibition); conditions: time post-induction: 4.5 h; library: site-saturation at positions 5, 18, 19, 20;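 also: peptides expressed intracellularly from a pBAD plasmid library in pooled LB shake-flask culture, induced with 0.3% L-arabinose, DNA abundance read by NGS, three biological replicates, DESeq2 with apeglm shrinkage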
A collection of sequences and their measured shrunken log2 fold change

{"Seq String": "RRIRARPPRLPRPRPRPAFGPRP", "shrunken log2 fold change": 0.6}
{"Seq String": "RRIRKRPPRLPRPRPRPHSHPRP", "shrunken log2 fold change": 0.179}
{"Seq String": "RRIRFRPPRLPRPRPRPCDRPRP", "shrunken log2 fold change": -0.179}
{"Seq String": "RRIRRRPPRLPRPRPRPNIAPRP", "shrunken log2 fold change": -0.109}
{"Seq String": "RRIRLRPPRLPRPRPRPKSQPRP", "shrunken log2 fold change": 0.00795}
{"Seq String": "RRIRGRPPRLPRPRPRPQHPPRP", "shrunken log2 fold change": 0.426}
{"Seq String": "RRIRYRPPRLPRPRPRPDYTPRP", "shrunken log2 fold change": -0.174}
{"Seq String": "RRIRMRPPRLPRPRPRPEIAPRP", "shrunken log2 fold change": 0.0315}
{"Seq String": "RRIRHRPPRLPRPRPRPTFMPRP", "shrunken log2 fold change": -0.102}
{"Seq String": "RRIRARPPRLPRPRPRPRGEPRP", "shrunken log2 fold change": 0.613}
{"Seq String": "RRIRSRPPRLPRPRPRPYLEPRP", "shrunken log2 fold change": -0.118}
{"Seq String": "RRIRGRPPRLPRPRPRPIIQPRP", "shrunken log2 fold change": 0.203}
{"Seq String": "RRIRRRPPRLPRPRPRPYEHPRP", "shrunken log2 fold change": -0.0324}
{"Seq String": "RRIRMRPPRLPRPRPRPPPLPRP", "shrunken log2 fold change": 1.58}
{"Seq String": "RRIRFRPPRLPRPRPRPPSCPRP", "shrunken log2 fold change": 0.337}
